This section presents compounds with their documented IC50 values.
- System: IL-1 production in LPS-stimulated PBMCs
- EXPERIMENT: Inhibition of IL-1 production in LPS-stimulated PBMCs ("cell")
- Assay type: cell-based, human
- CONDITION CONTEXT: Homo sapiens, PBMC

O=C1NCN2C=C(Sc3ccccc3)C=CC2=C1c1c(Cl)cccc1Cl ≥ 500 nM
O=c1ncn2nc(Sc3ccccc3)ccc2c1-c1c(Cl)cccc1Cl 100 to 500 nM
Nc1ccccc1SC1=NN2CNC(=O)C(c3c(Cl)cccc3Cl)=C2C=C1 ≤ 100 nM

stdin: // IC50 lookup, key: O=C1NCN2N=C(Sc3ccccc3)C=CC2=C1c1c(F)cccc1F
stdout: 100 to 500 nM

stdin: // IC50 lookup, key: Cc1cccc(Sc2ccc3c(-c4c(Cl)cccc4Cl)c(=O)ncn3n2)c1
stdout: 100 to 500 nM

Data provenance: patent US7205305B2
